- target.or.system: T1, c-mpl receptor (Homo sapiens (Human), UniProt P40238 26-491, The MPL used for panning was biotinylated; the biotin site is not stated and is not carried by the letters.)
- T1 construct: also called TPO receptor
- T1 sequence: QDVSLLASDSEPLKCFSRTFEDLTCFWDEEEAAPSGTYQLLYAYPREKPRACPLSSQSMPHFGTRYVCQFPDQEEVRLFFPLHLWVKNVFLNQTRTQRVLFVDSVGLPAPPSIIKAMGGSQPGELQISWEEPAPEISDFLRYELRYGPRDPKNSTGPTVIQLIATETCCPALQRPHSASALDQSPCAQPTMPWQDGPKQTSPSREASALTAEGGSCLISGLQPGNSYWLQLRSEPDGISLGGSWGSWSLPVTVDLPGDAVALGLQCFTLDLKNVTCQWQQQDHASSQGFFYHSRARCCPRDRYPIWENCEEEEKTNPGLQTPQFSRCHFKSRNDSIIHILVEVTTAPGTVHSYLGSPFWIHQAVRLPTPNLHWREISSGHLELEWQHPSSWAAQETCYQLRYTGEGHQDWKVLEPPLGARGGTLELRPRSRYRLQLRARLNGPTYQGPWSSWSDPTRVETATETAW
- test.protocol: phage-ELISA
Listing: Relative activity of selected binders
readout.kind: Relative activity

>>> measured_result("IEGPTFKQWQKSRTKHS [SEQ ID NO: 263]")
124
>>> measured_result("IEGEIWAGPGAARA [SEQ ID NO: 306]")
46.5
>>> measured_result("IEGPTFKQWQKLRLGHS [SEQ ID NO: 319]")
17.9
>>> measured_result("IEGWTWQFYVHPKGDHS [SEQ ID NO: 264]")
122
>>> measured_result("SEQ ID NO: 284 (peptide) peptide: IEGHGSQKPTAARALESTSSLTTRTRTTSICAQQDMVGPTIRQWLAARACI")
92.1
>>> measured_result("IEGWVWRQWLAARA [SEQ ID NO: 301]")
52.1
>>> measured_result("IEGPTFKQWQRLRKNHS [SEQ ID NO: 329]")
12.1
>>> measured_result("IEGWNPWRGAASRV [SEQ ID NO: 310]")
33.9
>>> measured_result("IEGPTLRQRLAARA [SEQ ID NO: 299]")
57.3
>>> measured_result("IEGPTLHEWLAQRREHS [SEQ ID NO: 334]")
75.9
>>> measured_result("IEGRTWQLYFHAKEEHS [SEQ ID NO: 278]")
102
>>> measured_result("IEGWPWQLYVHPEGEHS [SEQ ID NO: 259]")
129
